Attribute: IC50
# TESTED TARGET: LRRK2 G2019S (Homo sapiens (Human), UniProt Q5S007, G2019S)
# Sequence (Q5S007 970-2527 G2019S): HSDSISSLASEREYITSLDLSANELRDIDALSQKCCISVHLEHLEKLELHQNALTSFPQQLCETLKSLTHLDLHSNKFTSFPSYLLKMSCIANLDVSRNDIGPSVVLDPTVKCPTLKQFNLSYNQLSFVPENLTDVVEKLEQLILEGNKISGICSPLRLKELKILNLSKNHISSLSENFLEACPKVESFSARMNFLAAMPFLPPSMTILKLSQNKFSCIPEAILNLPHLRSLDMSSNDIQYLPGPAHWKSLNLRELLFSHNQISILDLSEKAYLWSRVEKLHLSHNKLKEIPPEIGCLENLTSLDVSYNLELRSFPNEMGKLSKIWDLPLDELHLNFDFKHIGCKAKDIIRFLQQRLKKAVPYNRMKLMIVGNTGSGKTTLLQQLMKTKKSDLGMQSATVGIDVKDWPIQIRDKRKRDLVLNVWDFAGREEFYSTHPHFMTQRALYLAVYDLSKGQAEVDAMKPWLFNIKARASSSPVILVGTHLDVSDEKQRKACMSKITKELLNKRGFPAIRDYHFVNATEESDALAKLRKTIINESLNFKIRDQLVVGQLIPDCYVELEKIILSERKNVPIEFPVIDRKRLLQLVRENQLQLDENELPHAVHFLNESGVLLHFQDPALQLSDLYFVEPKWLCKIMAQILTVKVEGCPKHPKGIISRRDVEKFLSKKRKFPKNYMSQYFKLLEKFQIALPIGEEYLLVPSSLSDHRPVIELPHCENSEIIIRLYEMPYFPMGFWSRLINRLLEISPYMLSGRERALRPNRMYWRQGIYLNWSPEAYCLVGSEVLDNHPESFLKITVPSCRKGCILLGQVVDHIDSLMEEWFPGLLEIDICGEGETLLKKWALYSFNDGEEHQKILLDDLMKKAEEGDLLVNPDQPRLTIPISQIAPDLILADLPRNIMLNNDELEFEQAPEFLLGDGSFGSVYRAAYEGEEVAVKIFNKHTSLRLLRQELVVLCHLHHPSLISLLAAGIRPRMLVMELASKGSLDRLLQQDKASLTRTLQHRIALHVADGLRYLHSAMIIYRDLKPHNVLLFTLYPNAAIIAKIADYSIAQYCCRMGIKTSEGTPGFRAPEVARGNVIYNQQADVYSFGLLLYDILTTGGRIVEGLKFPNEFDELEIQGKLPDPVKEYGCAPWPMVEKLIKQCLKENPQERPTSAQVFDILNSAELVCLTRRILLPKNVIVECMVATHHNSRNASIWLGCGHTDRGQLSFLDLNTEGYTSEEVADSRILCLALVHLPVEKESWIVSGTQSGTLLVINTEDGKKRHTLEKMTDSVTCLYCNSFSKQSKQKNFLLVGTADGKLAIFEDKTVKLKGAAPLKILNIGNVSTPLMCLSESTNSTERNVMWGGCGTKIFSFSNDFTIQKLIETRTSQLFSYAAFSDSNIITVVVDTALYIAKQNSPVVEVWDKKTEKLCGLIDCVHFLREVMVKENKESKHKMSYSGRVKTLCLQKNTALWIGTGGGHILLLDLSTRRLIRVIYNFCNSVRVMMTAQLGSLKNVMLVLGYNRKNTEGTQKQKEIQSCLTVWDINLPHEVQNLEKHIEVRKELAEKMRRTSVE
# PROTOCOL SUMMARY: LRRK2 G2019S Kinase Assay
# Format: biochemical
# PROTOCOL CONDITIONS: 10 μM ATP

Record Cc1n[nH]c2ncc(-c3cncc(NC(=O)C4CCN(C)CC4)n3)cc12 [Compound 39] . Reported IC50: > 500 nM

Record Cc1n[nH]c2ncc(-c3cncc(NC4CCN(C(C)C)CC4)n3)cc12 [Compound 87] . Reported IC50: > 500 nM

Further cases:
Record Cc1n[nH]c2ncc(-c3cncc(NCCN(C)C)n3)cc12 [Compound 68] . Reported IC50: < 500 nM
